experiment: Phase 1 Stage 1 clinical pharmacokinetics of SC ZA co-administered with rHuPH20
Assay type: in vivo, human
conditions used: human, serum, sc, serum; ZA 0.25 mg SC infusion + 24000 Units rHuPH20; 8 h post infusion; n=3; read-out: Mean Conc.
readout: concentration at 8 h (ng/mL)
I only need the number, in ng/mL, no unit after it.

stdin: # concentration at 8 h lookup, item O=P(O)(O)C(O)(Cn1ccnc1)P(=O)(O)O [ZA]
stdout: 0.82

====

experiment: Phase 1 Stage 1 clinical pharmacokinetics of SC ZA co-administered with rHuPH20
Type: in vivo, human
conditions used: human, serum, sc, ZA 0.5 mg SC + 24000 U rHuPH20; median, n=3; read-out: AUC (0-∞)
readout: AUC(0-inf) (ng·h/mL)
Numbers only; they are read as ng·h/mL.

stdin: AUC(0-inf) lookup needed for `O=P(O)(O)C(O)(Cn1ccnc1)P(=O)(O)O` , thanks.
stdout: 64.4

====

experiment: Phase 1 Stage 1 clinical pharmacokinetics of SC ZA co-administered with rHuPH20
Assay type: in vivo, human
conditions used: human, serum, sc, ZA 1 mg SC + 24000 U rHuPH20; individual subjects; read-out: Vz/F
readout: Vd/F (L/kg)
Number in L/kg, nothing else.

stdin: Report Vd/F for O=P(O)(O)C(O)(Cn1ccnc1)P(=O)(O)O [ZA] please.
stdout: 2.65

====

experiment: Phase 1 Stage 1 clinical pharmacokinetics of SC ZA co-administered with rHuPH20
Assay type: in vivo, human
conditions used: human, serum, sc, serum; ZA 2 mg SC infusion + 24000 Units rHuPH20; 12 h post infusion; n=3; read-out: Median Conc.
readout: concentration at 12 h
Put your answer as a value accompanied by its unit after it.

stdin: Item under review: `O=P(O)(O)C(O)(Cn1ccnc1)P(=O)(O)O` . Reported concentration at 12 h?
stdout: 1.64 ng/mL

====

experiment: Phase 1 Stage 1 clinical pharmacokinetics of SC ZA co-administered with rHuPH20
Type: in vivo, human
conditions used: human, serum, sc, serum; ZA 0.5 mg SC infusion + 24000 Units rHuPH20; 12 h post infusion; n=3; read-out: Mean Conc.
readout: concentration at 12 h (ng/mL)
Your answer is read as ng/mL, so omit the unit and give the number.

stdin: Request the reported concentration at 12 h associated with O=P(O)(O)C(O)(Cn1ccnc1)P(=O)(O)O [ZA]
stdout: 0.54

====

experiment: Phase 1 Stage 1 clinical pharmacokinetics of SC ZA co-administered with rHuPH20
Assay type: in vivo, human
conditions used: human, serum, sc, 0.0877 mg/kg, Subj 46; ZA 0.0877 mg/kg SC; inf 0.276 hr; PH20 12000 U; read-out: AUC (0-inf)
readout: AUC(0-inf) (ng·h/mL)
Quick reminder: number only, in ng·h/mL, skip the unit.

stdin: # query: AUC(0-inf) of entry `O=P(O)(O)C(O)(Cn1ccnc1)P(=O)(O)O`
stdout: 747

====

experiment: Phase 1 Stage 1 clinical pharmacokinetics of SC ZA co-administered with rHuPH20
Type: in vivo, human
conditions used: human, serum, sc, ZA 2 mg SC + 24000 U rHuPH20; individual subjects; read-out: Tmax
readout: Tmax (h)
// units = h; emit number, no label

stdin: What measured Tmax goes with `O=P(O)(O)C(O)(Cn1ccnc1)P(=O)(O)O` ?
stdout: 1.31

====

experiment: Phase 1 Stage 1 clinical pharmacokinetics of SC ZA co-administered with rHuPH20
Assay type: in vivo, human
conditions used: human, serum, sc, […], AUC (0-12 h), Subj 25; ZA […] SC; inf 0.549 hr; PH20 23736 U
readout: AUC(0-t) (ng·h/mL)
Number only, in ng·h/mL; omit the unit.

stdin: Can you share its AUC(0-t)? I mean this compound: `O=P(O)(O)C(O)(Cn1ccnc1)P(=O)(O)O`
stdout: 103

====

experiment: Phase 1 Stage 1 clinical pharmacokinetics of SC ZA co-administered with rHuPH20
Assay type: in vivo, human
conditions used: human, serum, sc, 0.0794 mg/kg, Subj 74; ZA 0.0794 mg/kg SC; inf […]; PH20 6000 U; read-out: Tmax
readout: Tmax (min)
Write the number in min without appending the unit.

stdin: Which Tmax value belongs to `O=P(O)(O)C(O)(Cn1ccnc1)P(=O)(O)O` ?
stdout: 45

====

experiment: Phase 1 Stage 1 clinical pharmacokinetics of SC ZA co-administered with rHuPH20
Type: in vivo, human
conditions used: human, serum, sc, […], Subj 21; ZA […] SC; inf 0.556 hr; PH20 24000 U; read-out: AUC (0-inf)
Experimental: A pharmacokinetic study of zoledronic acid (ZA) co-administered with rHuPH20 in human subjects was conducted. […] Serum concentration of ZA was determined using a qualified LC-MS-MS assay after derivatization with diazomethane (Zhu, L S et al. (2006) Rapid Commun. […] The assay range was from 2.0 to 400 ng/mL with a lower limit of quantitation (LLOQ) at 2.0 ng/mL. […] Summary statistics (mean, standard deviation, and median) were calculated using JMP or Microsoft Excel.
readout: AUC(0-inf) (µg·h/mL)
# output: bare number, implied unit µg·h/mL

stdin: Any idea what AUC(0-inf) was measured for `O=P(O)(O)C(O)(Cn1ccnc1)P(=O)(O)O` ?
stdout: 0.0643

====

experiment: Pharmacokinetics of ZA in pig serum after IV or SC infusion with or without rHuPH20 (LC-MS-MS, non-compartmental analysis)
Format: in vivo
conditions used: female, Yorkshire, pig, serum, subcutaneous, […], pig 66, Study Group 3, SC, ZA […], rHuPH20 10000 U/mL, 100 mL over 16 min, time 3 h; read-out: Zoledronic Acid Serum Concentration
readout: concentration at 3 h (ng/mL)
Give the value, in units of ng/mL, as a plain number.

stdin: I am curious: what concentration at 3 h value has been reported for O=P(O)(O)C(O)(Cn1ccnc1)P(=O)(O)O [ZA] ?
stdout: 11.4

====

experiment: Phase 1 Stage 1 clinical pharmacokinetics of SC ZA co-administered with rHuPH20
Format: in vivo, human
conditions used: human, serum, sc, 0.0691 mg/kg, Subj 39; ZA 0.0691 mg/kg SC; inf 0.552 hr; PH20 23856 U; read-out: Tmax
readout: Tmax
Your answer should be a number followed by the unit of measure.

stdin: // lookup Tmax for O=P(O)(O)C(O)(Cn1ccnc1)P(=O)(O)O [ZA]
stdout: 47.4 min

====

experiment: Phase 1 Stage 1 clinical pharmacokinetics of SC ZA co-administered with rHuPH20
Type: in vivo, human
conditions used: human, serum, sc, serum; ZA 5 mg SC infusion + 24000 Units rHuPH20; 6 h post infusion; individual subjects; read-out: Zoledronic Acid Concentration
readout: concentration at 6 h

stdin: Entry O=P(O)(O)C(O)(Cn1ccnc1)P(=O)(O)O [ZA] has what concentration at 6 h?
stdout: 20.3 ng/mL

====

experiment: Phase 1 Stage 1 clinical pharmacokinetics of SC ZA co-administered with rHuPH20
Format: in vivo, human
conditions used: human, serum, sc, 0.0706 mg/kg, AUC (0-12 h), Subj 38; ZA 0.0706 mg/kg SC; inf 0.554 hr; PH20 23952 U
readout: AUC(0-t) (ng·h/mL)
A number alone suffices; assume ng·h/mL.

stdin: Given the molecule `O=P(O)(O)C(O)(Cn1ccnc1)P(=O)(O)O` , what is its reported AUC(0-t)?
stdout: 477

====

experiment: Phase 1 Stage 1 clinical pharmacokinetics of SC ZA co-administered with rHuPH20
Assay type: in vivo, human
conditions used: human, serum, sc, ZA 0.5 mg SC + 24000 U rHuPH20; median, n=3; read-out: Vss/F
readout: Vd/F

stdin: Entry `O=P(O)(O)C(O)(Cn1ccnc1)P(=O)(O)O` has what Vd/F?
stdout: 0.423 L/kg

====

experiment: Phase 1 Stage 1 clinical pharmacokinetics of SC ZA co-administered with rHuPH20
Assay type: in vivo, human
conditions used: human, serum, sc, 0.0781 mg/kg, Subj 71; ZA 0.0781 mg/kg SC; inf […]; PH20 6000 U
Description: A pharmacokinetic study of zoledronic acid (ZA) co-administered with rHuPH20 in human subjects was conducted. […] Serum concentration of ZA was determined using a qualified LC-MS-MS assay after derivatization with diazomethane (Zhu, L S et al. (2006) Rapid Commun. […] The assay range was from 2.0 to 400 ng/mL with a lower limit of quantitation (LLOQ) at 2.0 ng/mL. […] Summary statistics (mean, standard deviation, and median) were calculated using JMP or Microsoft Excel.
readout: Cmax (ng/mL)
Express it in ng/mL; write the number only.

stdin: Request the reported Cmax associated with `O=P(O)(O)C(O)(Cn1ccnc1)P(=O)(O)O`
stdout: 198

====

experiment: Pharmacokinetics of ZA in pig serum after IV or SC infusion with or without rHuPH20 (LC-MS-MS, non-compartmental analysis)
Format: in vivo
conditions used: female, Yorkshire, pig, serum, sc, […], pig 62; SC ZA […], 50 mL over 8 min, no rHuPH20; read-out: SC Bioavailability (0-8 h)
readout: bioavailability
Field note: include the unit after the figure.

stdin: What does the record list as bioavailability for `O=P(O)(O)C(O)(Cn1ccnc1)P(=O)(O)O` ?
stdout: 71.9%

This collection of values is drawn from patent US20090311237A1.
